Test system: SNB-75
Procedure details: NCI tumour cell line growth inhibition, 48 h
Activity calls are given as the source filed them. Cut-off read from the data, not from the text of the source: active = GI50 up to about 1.1 µM and inactive = higher.
Endpoint label: GI50

{"Compound": "CC(=O)OC(Cc1ccc2ccccc2n1)(C(F)(F)F)C(F)(F)F", "GI50": "4.36 µM (inactive)"}

Kindly note the recorded GI50 for CCc1cccc2c3c([nH]c12)-c1ccccc1NC(=O)C3 , which is 13.2 µM (inactive)

Kindly note the recorded GI50 for Oc1ccc(Br)cc1/C=N/c1ccc(/N=C/c2cc(Br)ccc2O)cc1 , which is > 100 µM (inactive)

Kindly note the recorded GI50 for CC1=Nc2c(O)nc(S)nc2NC(c2ccc(Cl)c(Cl)c2)C1 (stereo not drawn) , which is 80.9 µM (inactive)

Kindly note the recorded GI50 for Cc1cc(OC(=O)NCn2cc(-c3ccccc3)nn2)ccc1Cl , which is 29.8 µM (inactive)

Kindly note the recorded GI50 for CCOC(=O)C1=C(O)C(=O)c2ccccc2C1=O , which is > 100 µM (inactive)

----------
Test system: U-251
Procedure details: NCI tumour cell line growth inhibition, 48 h
Calls of active or inactive are those of the source. Cut-off read from the data, not from the text of the source: active = GI50 up to about 1.1 µM and inactive = higher.
Endpoint label: GI50

Kindly note the recorded GI50 for COc1ccc(CCCCNCc2cccc(CNCCCCc3ccc(OC)cc3)c2)cc1 , which is 1.85 µM (inactive)

Kindly note the recorded GI50 for CC(C)c1ccc(/C=C/c2cc(C(=O)NNC(=O)NC3CCCCC3)nc(S)n2)cc1 , which is > 100 µM (inactive)

Kindly note the recorded GI50 for C/C=C/C[C@@H](C)[C@@H](O)[C@H]1C(=O)N[C@@H](CC)C(=O)N(C)CC(=O)N(C)[C@@H](CC(C)C)C(=O)N[C@@H](C(C)C)C(=O)N(C)[C@@H](CC(C)C)C(=O)N[C@@H](C)C(=O)N[C@H](C)C(=O)N(C)[C@@H](CC(C)C)C(=O)N(C)[C@@H](CC(C)C)C(=O)N(C)[C@@H](C(C)C)C(=O)N1C , which is 7.66 µM (inactive)

Kindly note the recorded GI50 for CCOC(=O)c1ccc(C(=O)/C(C(=O)OC(C)(C)C)=C2\CCCN2C)n1C , which is > 100 µM (inactive)

Kindly note the recorded GI50 for CCCCCCCCCCCCCCCC(=O)N[C@H]1CCc2cc(OC)c(OC)c(OC)c2-c2ccc(SC)c(=O)cc21 , which is 0.294 µM (active)

Kindly note the recorded GI50 for COc1ccc(C(O)c2cc(OC)c(OC)c(OC)c2)cc1 (stereo not given) , which is 34 µM (inactive)

Kindly note the recorded GI50 for COC(=O)c1cc2c(n1S(=O)(=O)c1ccc(C)cc1)C(=O)C(=O)c1[nH]cc(C(=O)OCc3ccccc3)c1-2 , which is 0.172 µM (active)

Kindly note the recorded GI50 for COC(=O)C(/C(=N/N)C(=O)Nc1ccc(C)c(C)c1)c1nc2ccc(Cl)cc2nc1O (stereo not given) , which is > 100 µM (inactive)

Kindly note the recorded GI50 for COc1ccc2c(c1)CCCC1C3=NCCC3(C)CSC21 (stereo not given) , which is 74.5 µM (inactive)

Kindly note the recorded GI50 for C1CSC(=[N+]2CC[N+](=C3SCCS3)CC2)S1 , which is > 100 µM (inactive)

Kindly note the recorded GI50 for CCOC(=O)NC(=O)c1cn(CCCCCCCCCCC(=O)NCCCN2CCN(CCCNC(=O)CCCCCCCCCCn3cc(C(=O)NC(=O)OCC)c(=O)[nH]c3=O)CC2)c(=O)[nH]c1=O , which is > 100 µM (inactive)

----------
System: SNB-19
Procedure details: NCI tumour cell line growth inhibition, 48 h
Activity calls are given as the source filed them. Rule as the data show it: active = GI50 up to about 1.1 µM and inactive = higher.
Endpoint label: GI50

Known GI50 results, listed for orientation:
{"Molecule": "CCOC(=O)C1=C(Nc2ccc(Cl)cc2Cl)OCC1=O", "GI50": "> 100 µM (inactive)"}
{"Molecule": "Nc1c(Br)c(=O)[nH]c(=O)n1COCCO", "GI50": "> 100 µM (inactive)"}
{"Molecule": "Cc1ccc(N2CCc3c(C)c(C#N)c4nc5ccccc5n4c32)cc1", "GI50": "37.4 µM (inactive)"}
{"Molecule": "CC(C)(O)CCC(O)C(C)(O)C1CCC2(O)C3=CC(=O)C4(O)CC(O)C(O)CC4(C)C3CCC12C.CC(C)(O)CCC(O)C(C)(O)C1CCC2(O)C3=CC(=O)C4CC(O)C(O)CC4(C)C3CCC12C (stereo not given)", "GI50": "> 100 µM (inactive)"}
{"Molecule": "CC(=O)c1ccc2c(c1)CC1(C2)Cc2ccccc2C1=O (stereo not given)", "GI50": "> 100 µM (inactive)"}

Kindly note the recorded GI50 for CCOC(=O)N(c1ccccc1)N(CC)C(=O)/C(C)=N/Nc1ccc([N+](=O)[O-])cc1 , which is 16.2 µM (inactive)

Kindly note the recorded GI50 for NC(=O)C(=CNC(=S)Nc1cccc(C(F)(F)F)c1)C(N)=O , which is > 100 µM (inactive)

----------
System: SN12C
Procedure details: NCI tumour cell line growth inhibition, 48 h
Calls of active or inactive are those of the source. Cut-off read from the data, not from the text of the source: active = GI50 up to about 1.1 µM and inactive = higher.
Form entry, call: pick from label 1 (active), label 0 (inactive)

{"Compound": "CC1=CC2C(C=C1)S(=O)(=O)N1CC21c1ccccc1 (stereo not drawn)", "Assigned category": "label 0"}
{"Compound": "C/C=C/C[C@@H](C)[C@@H](O)[C@H]1C(=O)N[C@@H](CC)C(=O)N(C)CC(=O)N(C)[C@@H](CC(C)C)C(=O)N[C@@H](C(C)C)C(=O)N(C)[C@@H](CC(C)C)C(=O)N[C@@H](C)C(=O)N[C@H](C)C(=O)N(C)[C@@H](CC(C)C)C(=O)N(C)[C@@H](CC(C)C)C(=O)N(C)[C@@H](C(C)C)C(=O)N1C", "Assigned category": "label 0"}
{"Compound": "Cn1c(=O)c2c(nc(NCCCCl)n2CC(=O)NCCCCl)n(C)c1=O", "Assigned category": "label 0"}
{"Compound": "CCCCCCNCCCNc1c2ccccc2nc2cccc([N+](=O)[O-])c12", "Assigned category": "label 1"}
{"Compound": "CCOC(=N)CC(=O)Nc1cccc(C)c1C", "Assigned category": "label 0"}
{"Compound": "CCOC(=O)N1c2ccccc2S(=O)(=O)c2ccccc21", "Assigned category": "label 0"}
{"Compound": "NC(=O)C(=CNC(=S)Nc1cccc(C(F)(F)F)c1)C(N)=O", "Assigned category": "label 0"}

Qu. Each compound tested received a call. Report the one for Cc1ccc(N2CCc3c(C)c(C#N)c4nc5ccccc5n4c32)cc1 .
Ans. label 0

----------
Some compounds, each annotated with its measured GI50.
Tested on: RXF 393
Procedure details: NCI tumour cell line growth inhibition, 48 h
Calls of active or inactive are those of the source. Rule as the data show it: active = GI50 up to about 1.1 µM and inactive = higher.

Known GI50 results, listed for orientation:
{"Compound": "Cc1ccc(C(=O)N2c3ccccc3N(C)n3cccc3C2CC(=O)O)cc1 (stereo unspecified)", "System under test": "RXF 393", "Endpoint label": "GI50", "Endpoint value": "> 100 µM (inactive)"}
{"Compound": "O=C(O)CC1NC(/C(=C/c2ccccc2)NC(=O)c2ccccc2)OC1=O (stereo unspecified)", "System under test": "RXF 393", "Endpoint label": "GI50", "Endpoint value": "34.5 µM (inactive)"}
{"Compound": "CC1CCCC(C(O)CC2CC(=O)NC(=O)C2)C1O (stereo unspecified)", "System under test": "RXF 393", "Endpoint label": "GI50", "Endpoint value": "> 100 µM (inactive)"}
{"Compound": "CC(=O)N1C(Nc2ccccc2)CCN1c1ccccc1 (stereo unspecified)", "System under test": "RXF 393", "Endpoint label": "GI50", "Endpoint value": "> 10 µM (inactive)"}
{"Compound": "CCCCCCCCCC(=O)CC(=O)c1c(O)cccc1O", "System under test": "RXF 393", "Endpoint label": "GI50", "Endpoint value": "27 µM (inactive)"}
{"Compound": "COC12OCCN(C)C1=CC(=O)C1N=NCC12 (stereo unspecified)", "System under test": "RXF 393", "Endpoint label": "GI50", "Endpoint value": "> 100 µM (inactive)"}

# input for lookup
Kindly note the recorded GI50 for CCOC(=O)c1ccc(N(CCOS(C)(=O)=O)CCOS(C)(=O)=O)cc1 , which is 20 µM (inactive)

----------
Test system: UACC-62
Procedure details: NCI tumour cell line growth inhibition, 48 h
Calls of active or inactive are those of the source. Cut-off read from the data, not from the text of the source: active = GI50 up to about 1.1 µM and inactive = higher.
Some compounds, each annotated with its measured GI50.

{"Compound": "CC(=O)c1ccc2c(c1)CC1(C2)Cc2ccccc2C1=O (stereo unspecified)", "GI50": "55.6 µM (inactive)"}
{"Compound": "COc1ccc(/C=c2\\sc3n(c2=O)CCN=3)cc1", "GI50": "> 100 µM (inactive)"}

# input for lookup
Kindly note the recorded GI50 for COc1cc(C(=O)c2cocc2C(=O)c2ccc3c(c2)OCO3)cc(OC)c1OC , which is 0.311 µM (active)
